measured on: UniProt:P49682
Sequence (P49682 whole entry): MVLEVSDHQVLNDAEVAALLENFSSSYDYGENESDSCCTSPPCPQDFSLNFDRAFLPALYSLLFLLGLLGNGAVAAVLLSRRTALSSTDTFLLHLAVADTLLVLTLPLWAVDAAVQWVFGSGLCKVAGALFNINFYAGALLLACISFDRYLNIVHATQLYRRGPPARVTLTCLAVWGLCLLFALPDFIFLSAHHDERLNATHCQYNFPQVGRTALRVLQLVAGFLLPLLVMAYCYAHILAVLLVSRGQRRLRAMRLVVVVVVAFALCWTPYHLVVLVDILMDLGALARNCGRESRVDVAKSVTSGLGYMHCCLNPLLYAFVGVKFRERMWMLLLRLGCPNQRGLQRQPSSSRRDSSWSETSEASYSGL
test name: Displacement of radiolabeled CXCL11 from human CXCR3 expressed in CHO cells by scintillation proximity assay
Format: cell-based
quantity name: pIC50
Please keep in mind that pIC50 is minus log10 of the molar concentration; only the number is needed.

Here are 8 compounds together with their reported answers.
input smiles	quantity name	numeric readout
O=C([C@@H]1C=C2c3cccc4[nH]cc(c34)C[C@H]2N(C(=O)Nc2cccc(F)c2)C1)N1CCCC1	pIC50	8.40
O=C([C@@H]1C=C2c3cccc4[nH]cc(c34)C[C@H]2N(C(=O)Nc2ccccc2)C1)N1CCCCCC1	pIC50	7.09
CN(C)CCn1cc2c3c(cccc31)C1=C[C@@H](C(=O)N3CCCC3)CN(C(=O)Nc3ccccc3)[C@@H]1C2	pIC50	8.70
O=C([C@@H]1C=C2c3cccc4c3c(cn4CCN3CCOCC3)C[C@H]2N(C(=O)Nc2ccccc2)C1)N1CCCC1	pIC50	7.62
O=C([C@@H]1C=C2c3cccc4[nH]cc(c34)C[C@H]2N(C(=O)Nc2ccc(F)cc2)C1)N1CCCC1	pIC50	8.15
O=C([C@@H]1C=C2c3cccc4[nH]cc(c34)C[C@H]2N(C(=O)Nc2ccccc2)C1)N1CCC(O)CC1	pIC50	7.85
O=C([C@@H]1C=C2c3cccc4[nH]cc(c34)C[C@H]2N(C(=O)Nc2ccsc2)C1)N1CCCC1	pIC50	7.59
O=C([C@@H]1C=C2c3cccc4c3c(cn4CCN3CCCCC3)C[C@H]2N(C(=O)Nc2ccccc2)C1)N1CCCC1	pIC50	8.70

Challenge: Request - read-out pIC50 | tested on UniProt:P49682 | compound `O=C([C@@H]1C=C2c3cccc4[nH]cc(c34)C[C@H]2N(C(=O)NCc2ccco2)C1)N1CCCC1`
Response given: 5.59
